B1: C6orf223 (parent)
chain: TLARMSRRTRGPVERAAAAAAAAA

- Variants of: B1
- experimental_details: protein stability index of a GFP-peptide fusion (GPS, HEK-293T) (PSI 1-6); higher = more stable;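 note: lentivirally expressed fusions sorted by FACS into six bins by GFP to DsRed ratio, PSI derived from sequencing read proportions per bin multiplied by bin number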
- conditions: c terminus: a fixed tail appended
Can you tell me protein stability index for the items I'm about to list?
Numbers only.

{"chain": "TLARMSRRTRGPVERSAAAAAAAA [A16S]", "protein stability index": 3.8}
{"chain": "TLARMSRRTRGPVERAAAAAAAAF [A24F]", "protein stability index": 2.35}
{"chain": "TLARMSRRTRGPVERAAAAAWAAA [A21W]", "protein stability index": 2.83}
{"chain": "TLARMSRRTRGPVERARAAAAAAA [A17R]", "protein stability index": 3.5}
{"chain": "TLARMSRRTRGPVERAAAAAAFAA [A22F]", "protein stability index": 2.37}
{"chain": "TLARMSRRTRGPVEWAAAAAAAAA [R15W]", "protein stability index": 2.01}
{"chain": "TLARMSRRTRGPVERAASAAAAAA [A18S]", "protein stability index": 2.48}
{"chain": "TLARMSRRTRGPVERAAAAAAAAH [A24H]", "protein stability index": 4.49}
{"chain": "TLARMSRRTRGPVERAAAAAVAAA [A21V]", "protein stability index": 2.18}
{"chain": "TLARMSRRTRGPVERAAAAAAATA [A23T]", "protein stability index": 4.46}

Hi! Can you tell me protein stability index for each of these variants?
1. TLAIMSRRTRGPVERAAAAAAAAA [R4I]
2. TLARMSRRTRGPVERAAAAAAIAA [A22I]
3. TLARMSRRTRGPVERAALAAAAAA [A18L]
4. TLARMSRRTRGPVERAYAAAAAAA [A17Y]
5. TLARMSRRTRGPVERAANAAAAAA [A18N]

**Result**
1: 1.94; 2: 2.23; 3: 2.92; 4: 4.15; 5: 3.25

State recorded protein stability index for all listed variants.
1. TLARMSRRTRGPVERAAQAAAAAA [A18Q]
2. TLARMSRRTRGPVERAAAAAAAAP [A24P]
3. TLARMSRRTRGWVERAAAAAAAAA [P12W]

**Result**
1: 2.4; 2: 2.23; 3: 2.27

State the recorded protein stability index for every item in the following list.
1. TLARMSRRTRGPVERAAAKAAAAA [A19K]
2. TLARMSRRTRGPVERAAAAAMAAA [A21M]
3. TLARMSRRTRGPVERAAMAAAAAA [A18M]
4. TLARMSRRTRGPVERAAAAAACAA [A22C]

**Result**
1: 3.43; 2: 1.95; 3: 1.56; 4: 3.33

Reference for the values: the supplement of paper PMC10567573
